// provenance: patent US11597701B2

# study.target: αvβ6 integrin (Homo sapiens, UniProt P06756+P18564)
# Sequence (P06756 31-1048): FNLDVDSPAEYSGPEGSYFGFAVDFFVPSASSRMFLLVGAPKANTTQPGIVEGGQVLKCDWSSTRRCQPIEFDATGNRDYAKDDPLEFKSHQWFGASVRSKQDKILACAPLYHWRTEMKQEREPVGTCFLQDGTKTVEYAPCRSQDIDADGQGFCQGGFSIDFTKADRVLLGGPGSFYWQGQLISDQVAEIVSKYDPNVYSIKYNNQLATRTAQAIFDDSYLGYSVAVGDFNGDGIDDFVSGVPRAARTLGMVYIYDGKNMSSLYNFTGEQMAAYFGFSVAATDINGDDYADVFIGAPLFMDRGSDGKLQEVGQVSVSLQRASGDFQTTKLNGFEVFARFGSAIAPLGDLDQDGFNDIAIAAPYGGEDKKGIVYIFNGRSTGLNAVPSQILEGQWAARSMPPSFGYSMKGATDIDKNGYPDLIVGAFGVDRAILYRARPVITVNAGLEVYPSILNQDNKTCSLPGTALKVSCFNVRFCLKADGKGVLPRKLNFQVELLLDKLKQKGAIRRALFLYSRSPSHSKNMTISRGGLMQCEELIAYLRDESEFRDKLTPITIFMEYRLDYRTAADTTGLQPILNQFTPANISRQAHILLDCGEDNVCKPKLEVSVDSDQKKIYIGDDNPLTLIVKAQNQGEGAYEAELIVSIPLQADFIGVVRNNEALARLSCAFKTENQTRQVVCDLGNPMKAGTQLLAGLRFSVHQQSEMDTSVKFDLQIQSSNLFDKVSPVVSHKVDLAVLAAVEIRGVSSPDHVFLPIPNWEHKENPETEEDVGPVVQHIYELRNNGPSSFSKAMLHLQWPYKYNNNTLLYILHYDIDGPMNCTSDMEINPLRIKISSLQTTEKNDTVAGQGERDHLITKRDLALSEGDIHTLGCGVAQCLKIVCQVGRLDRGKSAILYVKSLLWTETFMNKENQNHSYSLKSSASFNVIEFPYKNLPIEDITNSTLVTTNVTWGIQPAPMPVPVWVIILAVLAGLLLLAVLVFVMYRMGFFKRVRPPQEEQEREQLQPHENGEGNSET
# Sequence (P18564 22-788): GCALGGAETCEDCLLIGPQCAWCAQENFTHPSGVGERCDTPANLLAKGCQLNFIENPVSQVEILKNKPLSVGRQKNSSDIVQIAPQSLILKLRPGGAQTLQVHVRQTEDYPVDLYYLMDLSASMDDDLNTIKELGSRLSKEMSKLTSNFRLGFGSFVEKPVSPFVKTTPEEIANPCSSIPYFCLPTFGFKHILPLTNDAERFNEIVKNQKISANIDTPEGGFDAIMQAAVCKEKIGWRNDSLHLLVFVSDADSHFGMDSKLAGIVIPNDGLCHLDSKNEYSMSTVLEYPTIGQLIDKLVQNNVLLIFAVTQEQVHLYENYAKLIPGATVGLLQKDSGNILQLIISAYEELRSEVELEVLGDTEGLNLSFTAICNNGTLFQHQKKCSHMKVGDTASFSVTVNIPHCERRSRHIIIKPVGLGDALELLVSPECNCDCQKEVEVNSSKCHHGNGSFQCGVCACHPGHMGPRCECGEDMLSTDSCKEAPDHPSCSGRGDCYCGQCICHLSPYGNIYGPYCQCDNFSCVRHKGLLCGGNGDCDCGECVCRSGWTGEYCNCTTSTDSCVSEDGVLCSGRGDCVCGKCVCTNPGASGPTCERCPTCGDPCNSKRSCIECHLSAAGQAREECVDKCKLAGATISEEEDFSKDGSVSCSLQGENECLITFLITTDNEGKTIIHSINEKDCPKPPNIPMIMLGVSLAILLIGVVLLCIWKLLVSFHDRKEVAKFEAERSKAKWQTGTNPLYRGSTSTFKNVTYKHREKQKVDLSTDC
# protocol.description: IC50 binding activity (Examples 3 and 12)
# condition.notes: Example 12, Table 17; azide-functionalized structures (2b, 6.1b, 7b, 23b) examined
readout.name: IC50 (nM)

| molecule | study.target | readout.name | result.number |
| --- | --- | --- | --- |
| Cc1ccnc(NCCCC(=O)NCC(=O)N[C@@H](CC(=O)O)c2ccc(-c3ccc(OCCOCCOCCOCCOCCN=[N+]=[N-])c4ccccc34)cc2)c1 | αvβ6 integrin (Homo sapiens, UniProt P06756+P18564) | IC50 | 1.6 |
